Test system: U2OS-mOrange2-Peroxisome
procedureDetails: cell count relative to DMSO control (panel B, lysosome/peroxisome/lipid stain) (fraction of control); higher = more cells (less toxicity)
conditionSummary: 2.5 µM; treatment time: 24 h
valueType: cell count
# answer = number (no unit)

For reference, reported cell count for CO[C@H]1C[C@@H]2CC[C@@H](C)[C@@](O)(O2)C(=O)C(=O)N2CCCC[C@H]2C(=O)O[C@H]([C@H](C)C[C@@H]2CC[C@@H](OP(C)(C)=O)[C@H](OC)C2)CC(=O)[C@H](C)/C=C(\C)[C@@H](O)[C@@H](OC)C(=O)[C@H](C)C[C@H](C)/C=C/C=C/C=C/1C [deforolimus] stands at 0.385

For reference, reported cell count for COc1ccc(C[C@H]2NC[C@H](O)[C@H]2OC(C)=O)cc1 [anisomycin] stands at 0.0323

For reference, reported cell count for O=C(CCCCCCC(=O)Nc1ccccc1)NO [vorinostat] stands at 1.13

For reference, reported cell count for Nc1c2ccccc2nc2ccccc12 [9-aminoacridine] stands at 0.346

For reference, reported cell count for O=C(/C=C\n1cnc(-c2cc(C(F)(F)F)cc(C(F)(F)F)c2)n1)NNc1cnccn1 [selinexor] stands at 0.705

For reference, reported cell count for CC(=O)N[C@H]1[C@@H](O[C@@H]2O[C@H](CC(O)[C@H]3O[C@@H](n4ccc(=O)[nH]c4=O)[C@H](O)[C@@H]3O)[C@H](O)[C@H](O)[C@H]2NC(=O)/C=C/CC(C)C)O[C@H](CO)[C@@H](N)[C@@H]1O (stereo partly specified) [tunicamycin] stands at 0.448

---

I'd appreciate it if you could supply cell count values for the items below.
Tested on: U2OS
procedureDetails: cell count relative to DMSO control (panel A, nuclei/RNA/PMG/mitochondria stain) (fraction of control); higher = more cells (less toxicity)
conditionSummary: 0.625 µM; treatment time: 24 h
# answer = number (no unit)

For reference, reported cell count for CC(NC(=O)c1ccccc1/N=C/c1c(O)ccc2ccccc12)c1ccccc1 (stereo not drawn) [sirtinol] stands at 0.782

For reference, reported cell count for O=C1c2c(O)ccc(O)c2C(=O)c2c(NCCNCCO)ccc(NCCNCCO)c21 [mitoxantrone] stands at 0.503

For reference, reported cell count for O=c1[nH]c(=O)n([C@H]2C[C@H](O)[C@@H](CO)O2)cc1F [floxuridine] stands at 0.815

For reference, reported cell count for CN1CCC(c2c(O)cc(O)c3c(=O)cc(-c4ccccc4Cl)oc23)[C@@H](O)C1 (stereo partly drawn) [alvocidib] stands at 0.575

For reference, reported cell count for CNCCCN1c2ccccc2CCc2ccccc21 [desipramine] stands at 0.55

For reference, reported cell count for C[C@H]1O[C@@H](O[C@H]2[C@@H](O)C[C@H](O[C@H]3[C@@H](O)C[C@H](O[C@H]4CC[C@@]5(C)[C@H](CC[C@@H]6[C@@H]5CC[C@]5(C)[C@@H](C7=CC(=O)OC7)CC[C@]65O)C4)O[C@@H]3C)O[C@@H]2C)C[C@H](O)[C@@H]1O [digitoxin] stands at 1.11

For reference, reported cell count for COc1cccc2c1C(=O)c1c(O)c3c(c(O)c1C2=O)C[C@@](O)(C(C)=O)C[C@@H]3O[C@H]1C[C@H](N)[C@H](O)[C@H](C)O1 [daunorubicin] stands at 0.829

For reference, reported cell count for CCOc1ccccc1-n1c(C(C)N2CCN(C(=O)COc3ccc(Cl)cc3)CC2)nc2ccccc2c1=O (stereo not drawn) [erastin] stands at 1.07

For reference, reported cell count for N.N.[Cl][Pt][Cl] [cisplatin] stands at 1.12

For reference, reported cell count for O=C(/C=C\n1cnc(-c2cc(C(F)(F)F)cc(C(F)(F)F)c2)n1)NNc1cnccn1 [selinexor] stands at 0.994

For reference, reported cell count for O=C(O)CCCCC(CCSCc1ccccc1)SCc1ccccc1 (stereo not drawn) [CPI-613] stands at 0.993

For reference, reported cell count for N#C[C@H](O[C@@H]1O[C@H](CO[C@@H]2O[C@H](CO)[C@@H](O)[C@H](O)[C@H]2O)[C@@H](O)[C@H](O)[C@H]1O)c1ccccc1 [amygdalin] stands at 1.06

For reference, reported cell count for CCCCCCCCCCCCCCCCCCOP(=O)([O-])OC1CC[N+](C)(C)CC1 [perifosine] stands at 1.07

---

Test system: U2OS
procedureDetails: cell count relative to DMSO control (panel A, nuclei/RNA/PMG/mitochondria stain) (fraction of control); higher = more cells (less toxicity)
conditionSummary: 0.625 µM; treatment time: 24 h
I'd appreciate it if you could supply cell count values for the items below.
# answer = number (no unit)

Field cell count (system: U2OS) for entry CCCCCCCC(=O)N[C@H](CN1CCCC1)[C@H](O)c1ccc2c(c1)OCCO2 = 0.977

Field cell count (system: U2OS) for entry CO[C@H]1C[C@@H]2CC[C@@H](C)[C@@](O)(O2)C(=O)C(=O)N2CCCC[C@H]2C(=O)O[C@H]([C@H](C)C[C@@H]2CC[C@@H](O)[C@H](OC)C2)CC(=O)[C@H](C)/C=C(\C)[C@@H](O)[C@@H](OC)C(=O)[C@H](C)C[C@H](C)/C=C/C=C/C=C/1C = 0.8

Field cell count (system: U2OS) for entry N#CC(C#N)=NNc1ccc(OC(F)(F)F)cc1 = 0.945

Field cell count (system: U2OS) for entry O=C(/C=C/c1cccc(S(=O)(=O)Nc2ccccc2)c1)NO = 1.03

Field cell count (system: U2OS) for entry COc1cc([C@@H]2c3cc4c(cc3[C@H](O)[C@H]3COC(=O)[C@@H]23)OCO4)cc(OC)c1OC = 0.899

Field cell count (system: U2OS) for entry CCN(CC)CCCC(C)Nc1c2ccc(Cl)cc2nc2ccc(OC)cc12 (stereo not drawn) = 0.981

Field cell count (system: U2OS) for entry Cc1c(Cl)cccc1Nc1ccccc1C(=O)O = 1.06

Field cell count (system: U2OS) for entry Cc1c2oc3c(C)ccc(C(=O)N[C@@H]4C(=O)N[C@H](C(C)C)C(=O)N5CCC[C@H]5C(=O)N(C)CC(=O)N(C)[C@@H](C(C)C)C(=O)O[C@@H]4C)c3nc-2c(C(=O)N[C@@H]2C(=O)N[C@H](C(C)C)C(=O)N3CCC[C@H]3C(=O)N(C)CC(=O)N(C)[C@@H](C(C)C)C(=O)O[C@@H]2C)c(N)c1=O = 0.89

Field cell count (system: U2OS) for entry NS(=O)(=O)C#Cc1ccccc1 = 1.11

Field cell count (system: U2OS) for entry CC(=O)O[C@H]1C(=O)[C@@]2(C)[C@H]([C@H](OC(=O)c3ccccc3)[C@]3(O)C[C@H](OC(=O)[C@H](O)[C@@H](NC(=O)c4ccccc4)c4ccccc4)C(C)=C1C3(C)C)[C@]1(OC(C)=O)CO[C@@H]1C[C@@H]2O = 1.05

Field cell count (system: U2OS) for entry Fc1cc(F)c2c(c1)[C@H]1C=CC[C@H]1C(c1cccnc1)N2 (stereo partly drawn) [golgicide-A] = 1

Field cell count (system: U2OS) for entry Nc1ccn([C@@H]2O[C@H](CO)[C@@H](O)C2(F)F)c(=O)n1 = 0.658

Field cell count (system: U2OS) for entry CC(C)n1c(/C=C/C(O)CC(O)CC(=O)O)c(-c2ccc(F)cc2)c2ccccc21 (stereo not drawn) = 0.848

Field cell count (system: U2OS) for entry CC(C)n1nc(-c2ccc3oc(N)nc3c2)c2c(N)ncnc21 = 0.481

Field cell count (system: U2OS) for entry CO[C@H]1C[C@@H]2CC[C@@H](C)[C@@](O)(O2)C(=O)C(=O)N2CCCC[C@H]2C(=O)O[C@H]([C@H](C)C[C@@H]2CC[C@@H](OP(C)(C)=O)[C@H](OC)C2)CC(=O)[C@H](C)/C=C(\C)[C@@H](O)[C@@H](OC)C(=O)[C@H](C)C[C@H](C)/C=C/C=C/C=C/1C = 0.557

Field cell count (system: U2OS) for entry CC[C@@]1([C@@H]2O[C@@H]([C@H]3O[C@@](O)(CO)[C@H](C)C[C@@H]3C)C[C@@H]2C)CC[C@H]([C@]2(C)CC[C@]3(C[C@H](O)[C@@H](C)[C@@H]([C@@H](C)[C@@H](OC)[C@H](C)C(=O)O)O3)O2)O1 = 0.606

Field cell count (system: U2OS) for entry COc1cc(-n2c(=S)[nH]c3ccccc3c2=O)c(Cl)cc1Cl = 0.927

Field cell count (system: U2OS) for entry CO[C@@]12[C@H](COC(N)=O)C3=C(C(=O)C(C)=C(N)C3=O)N1C[C@@H]1N[C@@H]12 = 0.708

Field cell count (system: U2OS) for entry CN(Cc1cnc2nc(N)nc(N)c2n1)c1ccc(C(=O)N[C@@H](CCC(=O)O)C(=O)O)cc1 [methotrexate] = 0.696

Field cell count (system: U2OS) for entry COc1cccc2c1C(=O)c1c(O)c3c(c(O)c1C2=O)C[C@@](O)(C(=O)CO)C[C@@H]3O[C@H]1C[C@H](N)[C@H](O)[C@H](C)O1 = 0.836

Field cell count (system: U2OS) for entry CC(=O)N[C@H]1[C@@H](O[C@@H]2O[C@H](CC(O)[C@H]3O[C@@H](n4ccc(=O)[nH]c4=O)[C@H](O)[C@@H]3O)[C@H](O)[C@H](O)[C@H]2NC(=O)/C=C/CC(C)C)O[C@H](CO)[C@@H](N)[C@@H]1O (stereo partly drawn) = 0.582

Field cell count (system: U2OS) for entry CCCC[C@H]1C(=O)O[C@H](C)[C@H](NC(=O)c2cccc(NC=O)c2O)C(=O)O[C@@H](C)[C@@H]1OC(=O)CC(C)C [antimycin-a] = 0.799

Field cell count (system: U2OS) for entry Cc1c(N)nc([C@H](CC(N)=O)NC[C@H](N)C(N)=O)nc1C(=O)N[C@H](C(=O)N[C@H](C)[C@@H](O)[C@H](C)C(=O)N[C@H](C(=O)NCCc1nc(-c2nc(C(=O)NCCC[S+](C)C)cs2)cs1)[C@@H](C)O)[C@@H](O[C@@H]1O[C@@H](CO)[C@@H](O)[C@H](O)[C@@H]1O[C@H]1O[C@H](CO)[C@@H](O)[C@H](OC(N)=O)[C@@H]1O)c1c[nH]cn1 = 0.849
